test: Solubility of the compound in phosphate buffered saline at pH 7.4; format: physicochemical
reportedProperty: solubility (µg/mL)

(A) COc1cc2c(cn1)OCC21C(=O)N(C[C@@H]2CCCO2)c2ccccc21 (stereo not given in full)
(B) COc1cc2c(cc1OC)C1(CO2)C(=O)N(Cc2ccc(Cl)s2)c2ccccc21 (stereo not given)
(C) COc1cc2c(cc1F)OCC21C(=O)N(Cc2ccccn2)c2ccccc21 (stereo not given)
Order the entries above from lowest to highest solubility. Quick reminder: the answer is the labels in the order asked.
B, C, A
(B: 8 µg/mL, C: 36 µg/mL, A: 61 µg/mL)

---

molecular target: CYP3A4 (Homo sapiens, UniProt P08684); experiment: Inhibition of Homo sapiens (human) recombinant CYP3A4 at 10 uM by fluorogenic assay; assay type: ADME
Sequence (P08684 whole entry): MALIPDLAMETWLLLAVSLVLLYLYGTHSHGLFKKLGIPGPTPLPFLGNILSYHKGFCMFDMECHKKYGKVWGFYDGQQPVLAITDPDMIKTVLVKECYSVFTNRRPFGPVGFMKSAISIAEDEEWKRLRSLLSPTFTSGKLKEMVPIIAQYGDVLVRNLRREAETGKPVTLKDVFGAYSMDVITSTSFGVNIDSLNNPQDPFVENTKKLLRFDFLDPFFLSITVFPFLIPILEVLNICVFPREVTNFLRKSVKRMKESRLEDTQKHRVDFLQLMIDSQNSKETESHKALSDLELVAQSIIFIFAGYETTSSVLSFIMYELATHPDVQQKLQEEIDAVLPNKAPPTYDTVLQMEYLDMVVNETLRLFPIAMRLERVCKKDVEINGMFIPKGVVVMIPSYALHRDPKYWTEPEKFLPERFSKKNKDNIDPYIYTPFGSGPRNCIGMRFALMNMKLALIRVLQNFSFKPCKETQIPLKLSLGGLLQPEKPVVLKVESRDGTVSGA
reportedProperty: inhibition at 10 µM (%)

[[record]]
compound = "COc1ccc2c(c1)OCC21C(=O)N(Cc2ccccn2)c2ccccc21 (stereo not given)"
valueobserved = 29

[[record]]
compound = "COc1cc2c(cn1)OCC21C(=O)N(C[C@H]2CCCO2)c2ccccc21 (stereo not given in full)"
valueobserved = 14


(P) COc1ccc2c(n1)C1(CO2)C(=O)N(Cc2ccc(C(F)(F)F)o2)c2ccccc21 (stereo not given)
(Q) COc1cc2c(cn1)OCC21C(=O)Nc2ccccc21 (stereo not given)
(R) COc1ccc2c(n1)C1(CO2)C(=O)N(Cc2ccccn2)c2ccccc21 (stereo not given)
(S) COc1cc2c(cc1OC)C1(CO2)C(=O)N(Cc2ccc(Cl)s2)c2ccccc21 (stereo not given)
Order field: inhibition at 10 µM | Direction: descending (largest first) Quick reminder: the answer is the labels in the order asked.
S, R, P, Q

(P) COCCOc1ccc2c(c1)OCC21C(=O)N(Cc2ccccn2)c2ccccc21 (stereo not given)
(Q) N#Cc1cc2c(cc1F)OCC21C(=O)N(Cc2ncccc2C(F)(F)F)c2ccccc21 (stereo not given)
(R) CCCCCN1C(=O)C2(COc3cc4c(cc32)OCO4)c2ccccc21 (stereo not given)
Sort ascending by inhibition at 10 µM. Quick reminder: the answer is the labels in the order asked.
Q, P, R
(Q: 10%, P: 22%, R: 97%)

---

molecular target: CYP3A4 (Homo sapiens, UniProt P08684); test: Inhibition of Homo sapiens (human) recombinant CYP3A4 at 10 uM by fluorogenic assay; type: ADME
reportedProperty: inhibition at 10 µM (%)

[[record]]
compound = "COc1cc2c(cc1F)C1(CO2)C(=O)N(Cc2ccccn2)c2ccccc21 (configuration not stated)"
reportedproperty = "inhibition at 10 µM"
unitssymbol = "%"
valueobserved = 36

[[record]]
compound = "COc1ccc2c(c1)OCC21C(=O)N(CC2CCCCO2)c2ccccc21 (configuration not stated)"
reportedproperty = "inhibition at 10 µM"
unitssymbol = "%"
valueobserved = 35

[[record]]
compound = "COc1cc2c(cc1C)C1(CO2)C(=O)N(Cc2ccccn2)c2ccccc21 (configuration not stated)"
reportedproperty = "inhibition at 10 µM"
unitssymbol = "%"
valueobserved = 61

[[record]]
compound = "COc1ccc2c(n1)C1(CO2)C(=O)N(Cc2ccc3c(c2)OCCO3)c2ccccc21 (configuration not stated)"
reportedproperty = "inhibition at 10 µM"
unitssymbol = "%"
valueobserved = 63


(A) COc1ccc2c(n1)C1(CO2)C(=O)N(Cc2ncccc2C(F)(F)F)c2ccccc21 (configuration not stated)
(B) COc1ccc2c(n1)C1(CO2)C(=O)Nc2ccccc21 (configuration not stated)
(C) COc1ccc2c(n1)C1(CO2)C(=O)N(Cc2csc(C(C)C)n2)c2ccccc21 (configuration not stated)
Order field: inhibition at 10 µM | Direction: descending (largest first) Quick reminder: the answer is the labels in the order asked.
C, A, B

Values were extracted from ChEMBL document CHEMBL3045789.
